These entries and their values trace back to ChEMBL document CHEMBL3988442.

Below is a list of entries, each paired with its recorded Percent Effect value.
- TARGET SYSTEM: Aspartate--tRNA(Asp/Asn) ligase (Mycobacterium tuberculosis (strain ATCC 25618 / H37Rv))
- ASSAY: Assay for Asp RNA synthetase-1 from Mycobacterium tuberculosis
- Assay type: functional
- Parameters: scale not given: in the data most compounds retested in dose-response had high values
- MEASUREMENT PARAMETERS: 30 µM
Number in %, nothing else.

For orientation, consider the following solved cases.
CCc1ccsc1C(=O)N1CCN(CC(O)CC)CC1 (configuration not stated); 1.06
O=C(CN1CCN(CC(O)C2CC2)CC1)NCc1ccc(F)cc1 (configuration not stated); -0.889
Cc1cc(CN2CCC(CNC(=O)c3ccc(O)c(Cl)c3)C2)[nH]n1 (configuration not stated); 3.15

Task: Given the entry CCc1nc(CN(C)CC2CCN(CCO)CC2)no1 , report its measured Percent Effect.
Output: -1.64
